B1: HDV Ribozyme (parent)
chain: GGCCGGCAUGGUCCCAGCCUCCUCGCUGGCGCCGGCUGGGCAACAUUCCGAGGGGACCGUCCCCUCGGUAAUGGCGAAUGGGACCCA

variants of: B1; assay: self-cleavage, relative activity (ratio to wild type); higher = more cleavage; co-transcriptional
Outcome label depends on self-cleavage relative to 0.1: at/above gives class 1, below gives class 0.

| residue.change | class.label |
| --- | --- |
| G35A A78U | class 1 |
| C30G C64U | class 1 |
| U9C C21G | class 1 |
| G25C C85G | class 1 |
| C3G G29C | class 0 |
| G82U C85G | class 1 |
| G28C A43U | class 1 |
| G25C C44U | class 1 |
| U79C G80C | class 1 |
| C22A U65G | class 1 |
| C4G C24G | class 0 |
| G25U A70U | class 0 |
| C22A A83G | class 1 |
| G28A C84G | class 0 |
| C26G C32U | class 1 |
| G2A C44G | class 0 |
| U37G A51U | class 0 |
| C30G A56U | class 1 |
| G11U U69G | class 1 |
| C21G C26G | class 0 |
| C13G C64A | class 0 |
| U9A C62A | class 1 |
| C4U G25A | class 1 |
| U9C C41U | class 1 |
| G53A G59C | class 1 |
| A51C C58U | class 1 |
| C24U A51G | class 1 |
| C19A C49A | class 0 |
| C33G U37C | class 1 |
